Tested on: U251 human glioblastoma cell line
procedure summary: in vitro FM-HCR assay of MGMT activity (mPlum O^6MeG reporter plasmid)
Format: cell-based
experimental context: 0.1% DMSO; U251 cells; flow cytometry 24 h after transfection; damaged/undamaged reporter; inversely related to MGMT activity
// bucketize Reporter expression (%) mean, DMSO: lower bin = under 20%, middle bin = from 20% up to 40%, upper bin = 40% and over

Sort into band: G160E: MGMT polypeptide with mutation G160E (protein) MDKDCEMKRTTLDSPLGKLELSGCEQGLHEIKLLGKGTSAADAVEVPAPAAVLGGPEPLMQCTAWLNAYFHQPEAIEEFPVPALHHPVFQQESFTRQVLWKLLKVVKFGEVISYQQLAALAGNPKAARAVGGAMRGNPVPILIPCHRVVCSSGAVGNYSEGLAVKEWLLAHEGHRLGKPGLGGSSGLAGAWLKGAGATSGSPPAGRN
lower bin

Sort into band: G156V: MGMT polypeptide with mutation G156V (protein) MDKDCEMKRTTLDSPLGKLELSGCEQGLHEIKLLGKGTSAADAVEVPAPAAVLGGPEPLMQCTAWLNAYFHQPEAIEEFPVPALHHPVFQQESFTRQVLWKLLKVVKFGEVISYQQLAALAGNPKAARAVGGAMRGNPVPILIPCHRVVCSSGAVVNYSGGLAVKEWLLAHEGHRLGKPGLGGSSGLAGAWLKGAGATSGSPPAGRN
middle bin

Sort into band: M134F: MGMT polypeptide with mutation M134F (protein) MDKDCEMKRTTLDSPLGKLELSGCEQGLHEIKLLGKGTSAADAVEVPAPAAVLGGPEPLMQCTAWLNAYFHQPEAIEEFPVPALHHPVFQQESFTRQVLWKLLKVVKFGEVISYQQLAALAGNPKAARAVGGAFRGNPVPILIPCHRVVCSSGAVGNYSGGLAVKEWLLAHEGHRLGKPGLGGSSGLAGAWLKGAGATSGSPPAGRN
upper bin

Sort into band: R135L: MGMT polypeptide with mutation R135L (protein) MDKDCEMKRTTLDSPLGKLELSGCEQGLHEIKLLGKGTSAADAVEVPAPAAVLGGPEPLMQCTAWLNAYFHQPEAIEEFPVPALHHPVFQQESFTRQVLWKLLKVVKFGEVISYQQLAALAGNPKAARAVGGAMLGNPVPILIPCHRVVCSSGAVGNYSGGLAVKEWLLAHEGHRLGKPGLGGSSGLAGAWLKGAGATSGSPPAGRN
upper bin

Sort into band: G156A: MGMT polypeptide with mutation G156A (protein) MDKDCEMKRTTLDSPLGKLELSGCEQGLHEIKLLGKGTSAADAVEVPAPAAVLGGPEPLMQCTAWLNAYFHQPEAIEEFPVPALHHPVFQQESFTRQVLWKLLKVVKFGEVISYQQLAALAGNPKAARAVGGAMRGNPVPILIPCHRVVCSSGAVANYSGGLAVKEWLLAHEGHRLGKPGLGGSSGLAGAWLKGAGATSGSPPAGRN
middle bin

Sort into band: Y158F: MGMT polypeptide with mutation Y158F (protein) MDKDCEMKRTTLDSPLGKLELSGCEQGLHEIKLLGKGTSAADAVEVPAPAAVLGGPEPLMQCTAWLNAYFHQPEAIEEFPVPALHHPVFQQESFTRQVLWKLLKVVKFGEVISYQQLAALAGNPKAARAVGGAMRGNPVPILIPCHRVVCSSGAVGNFSGGLAVKEWLLAHEGHRLGKPGLGGSSGLAGAWLKGAGATSGSPPAGRN
lower bin

Sort into band: G156I: MGMT polypeptide with mutation G156I (protein) MDKDCEMKRTTLDSPLGKLELSGCEQGLHEIKLLGKGTSAADAVEVPAPAAVLGGPEPLMQCTAWLNAYFHQPEAIEEFPVPALHHPVFQQESFTRQVLWKLLKVVKFGEVISYQQLAALAGNPKAARAVGGAMRGNPVPILIPCHRVVCSSGAVINYSGGLAVKEWLLAHEGHRLGKPGLGGSSGLAGAWLKGAGATSGSPPAGRN
upper bin

Sort into band: Y158W: MGMT polypeptide with mutation Y158W (protein) MDKDCEMKRTTLDSPLGKLELSGCEQGLHEIKLLGKGTSAADAVEVPAPAAVLGGPEPLMQCTAWLNAYFHQPEAIEEFPVPALHHPVFQQESFTRQVLWKLLKVVKFGEVISYQQLAALAGNPKAARAVGGAMRGNPVPILIPCHRVVCSSGAVGNWSGGLAVKEWLLAHEGHRLGKPGLGGSSGLAGAWLKGAGATSGSPPAGRN
middle bin

The reported measurements were obtained from patent US20250135039A1.
